assayed.target: GlnR (Streptococcus pneumoniae D39) (UniProt A0A0H2ZRB1)
Sequence: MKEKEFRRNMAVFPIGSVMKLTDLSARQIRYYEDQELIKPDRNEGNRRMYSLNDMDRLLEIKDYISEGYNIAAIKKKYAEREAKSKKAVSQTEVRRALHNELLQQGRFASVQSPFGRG
measurement.notes: EMSA
assay.context: 5X FY buffer: 20 mM Tris-HCl pH 7.5, 30 mM KCl, 1 mM DTT, 1 mM EDTA, 10% glycerol; room temperature 20 min, 20 ul, ~30 ng DNA, 0.1-0.5 uM protein; 8%
measurement.label: binding

GTGAAAATTTCGTTTTCATATTTCTACTTATTCCATTCTATCACTAATTGTAAACACTTTCAAGTGTTTTTTGAAGATTGATTGAAAAAATTTCA (double strand) [PccpA]
binds
AAGTGCAAAATCCCTATTTTTACACTTTCTTTTCTAAAACAGTCTATATTTTATTTCAAACTGTATTATATTTTTGAAAAAAATAAAGTCCTTTT (double strand) [PpflB(cre1-)]
no binding
ATGACAGAAGAAATCAAAAATCTGCAGGCACAGGATTATGATGCCAGTCAAATTCAAGTTTTAGAGGGCTTAGAGGCTGTTCGTATGCGTCCAGG (double strand) [gyrB]
no binding
GTTACCTTCCTTGAAAACGTTTTATAGTTTTATTATATCACGACTTGAAGGAAAAACAAGATTTTTGCCTATTTTTTAGAAAGCAATCTGTTTTTC (double strand) [PpflA]
binds

Origin of measurements: paper PMC5327383
